System: HT-29
Test: NCI tumour cell line growth inhibition, 48 h
Activity calls are given as the source filed them. No stated cut-off is given here; in the data, active = GI50 up to about 1.1 µM and inactive = higher.
attribute measured: GI50

Some compounds with known GI50 results, for comparison:
{"compound": "CN(C)CCn1cnc2ncccc2c1=O", "GI50": "> 100 µM (inactive)"}
{"compound": "NS(=O)(=O)c1cc(Cl)c(NC(=S)NC(=O)Nc2ccc(Cl)c(Cl)c2)c(Cl)c1", "GI50": "46.8 µM (inactive)"}
{"compound": "Cc1nc2cn3c(c2c(=O)[nH]1)CCCCC3", "GI50": "> 100 µM (inactive)"}

Exercise: Return reported GI50; argument: `CC(=O)Oc1ccc(/C=C/C(=O)OCCOC(=O)/C=C/c2ccc(OC(C)=O)c(OC(C)=O)c2)cc1OC(C)=O`
Solution: 18.6 µM (inactive)

Exercise: I am curious: what GI50 value has been reported for O=C(Nc1ccccc1)C(=O)C(C(=O)c1ccccc1)C(c1ccccc1)c1ccccc1 (stereo not given) ?
Solution: > 10 µM (inactive)

====

System: KM12
Assay: NCI tumour cell line growth inhibition, 48 h
The source made the active and inactive calls. Cut-off read from the data, not from the text of the source: active = GI50 up to about 1.1 µM and inactive = higher.
The reply should name one outcome from Y for active, N for inactive

See these solved cases before continuing.
{"compound": "COc1ccc(C(=O)c2[nH]c(Nc3cc(C)ccn3)c(C(=S)Nc3ccccc3)c2N)cc1", "category label": "N"}
{"compound": "Cc1sc(Nc2ccccc2[N+](=O)[O-])c(C#N)c1C", "category label": "N"}
{"compound": "COC(=O)C(=O)C(C(C)=O)C(=O)C(=O)Nc1ccc(C)cc1C (configuration not stated)", "category label": "N"}
{"compound": "CCOC(=O)Cc1nc2ccccc2s1", "category label": "N"}
{"compound": "N=C(N)N/N=C\\c1ccc(C2CCNCC2)cc1", "category label": "N"}
{"compound": "O=c1oc2ccccc2cc1-c1csc(Nc2ccc(F)cc2)n1", "category label": "N"}
{"compound": "CC1(C)CCCCC1/C=C/C(CC(O)(C(F)(F)F)C(F)(F)F)=N\\Nc1ccc([N+](=O)[O-])cc1[N+](=O)[O-] (configuration not stated)", "category label": "N"}
{"compound": "Cn1c(=O)c2nc(CCNC(=O)c3ccccc3)[nH]c2n(C)c1=O", "category label": "N"}
{"compound": "CN(C)c1n/c(=N/Cc2cccs2)ss1", "category label": "N"}
{"compound": "CC(C)c1cc(OCC(O)CO)cc(C(C)C)c1 (configuration not stated)", "category label": "N"}

Exercise: Would you mind telling me which call this test gave `O=C1Nc2c(Cl)cc(Cl)cc2C1=O` ?
Solution: N

Exercise: Hey, what did the test say about `COc1ccc(-c2ncn(C[Si](C)(C)C)c2-c2ccc(OC)cc2)cc1` ?
Solution: N

====

System: OVCAR-8
Test: NCI tumour cell line growth inhibition, 48 h
Activity calls are given as the source filed them. Cut-off read from the data, not from the text of the source: active = GI50 up to about 1.1 µM and inactive = higher.
GI50 values by entry

{"compound": "Cc1cccc(/C=C2\\CCCc3ccccc3C2=O)c1", "GI50": "19.1 µM (inactive)"}
{"compound": "CC(=O)NNc1nc(C)c(C(=O)/C=C/c2ccc(Cl)c(Cl)c2)s1", "GI50": "> 100 µM (inactive)"}
{"compound": "COC(=O)C1(Cc2cccc(Cl)c2)CCCCCCN1C(=O)c1ccccc1 (stereo unspecified)", "GI50": "16.6 µM (inactive)"}

Exercise: // query GI50 value for entry `O=C1SC(c2ccc(Cl)cc2)(c2ccc(Cl)cc2)c2ccccc21`
Solution: > 100 µM (inactive)

Exercise: // query GI50 value for entry `CCOC(=O)c1cc2c([N+](=O)[O-])c(NC(C)=O)ccc2s1`
Solution: > 100 µM (inactive)

Exercise: Could you share which GI50 value was measured for `Cc1cc2c(c(C(N)=O)c1C)-c1cccc(Cl)c1C2=O` ?
Solution: > 100 µM (inactive)

Exercise: For the compound shown here, `CC(=O)O[C@H]1/C(=C/c2ccncc2)C[C@H]2[C@@H]3CC=C4C[C@@H](N5CCCC5)CC[C@]4(C)[C@H]3CC[C@]12C` , give the reported GI50.
Solution: 14 µM (inactive)

Exercise: Need GI50, item N=C(N)CCNC(=O)C1CCC(N)=N1 (stereo unspecified)
Solution: 7.28 µM (inactive)

Exercise: Could you tell me which GI50 is on file for CCOC(=O)N1C2C=C(C)C(ON2C(=O)c2ccccc2)C2C(C)C(=O)N21 (stereo unspecified) ?
Solution: > 100 µM (inactive)

Exercise: Entry `Cc1c(CN2CCN(C)CC2)c(CN2CCN(C)CC2)c(C)n1-c1ccc(Cl)cc1` has what GI50?
Solution: 19.9 µM (inactive)

Exercise: Please report the recorded GI50 for CCOc1ccc(NCC2CC/C(=C\C=C\c3ccccc3)C2=O)cc1 (stereo unspecified) .
Solution: 16.9 µM (inactive)

Exercise: What value of GI50 has been recorded for this entry: `CN1CCc2c(sc3ncn(Nc4ccc(Cl)cc4)c(=N)c23)C1`
Solution: > 100 µM (inactive)

Exercise: Find the recorded GI50 belonging to `CCCCCC1=CC(=O)C1(Cl)Cl` and report it.
Solution: 10.6 µM (inactive)

Exercise: Field request: GI50 | item: `O=c1[nH]cc(C(F)(C(F)(F)F)C(F)(F)F)c(=O)[nH]1`
Solution: > 100 µM (inactive)

Exercise: Field request: GI50 | item: CCNC(C)(C)C(SS)c1ccc(Br)cc1 (stereo unspecified)
Solution: > 100 µM (inactive)

Exercise: Which GI50 reading was recorded for the compound `O=C(/C=C/c1ccc(Cl)cc1)Oc1ccc(/C=C2\CCCCC2=O)cc1` ?
Solution: > 100 µM (inactive)

Exercise: Recorded GI50 of NC(=O)c1csc(C2O[C@@H](COP(=O)(O)OP(=O)(O)OC[C@H]3OC(n4cnc5c(N)ncnc54)[C@H](O)[C@@H]3O)[C@H](O)[C@@H]2O)n1 (stereo partly specified) , please.
Solution: 73.8 µM (inactive)

Exercise: Any idea what its GI50 is? The compound is Cc1ccc2nc(-c3ccc(N4C(=O)C(Cl)C4c4ccc(Cl)cc4)cc3)sc2c1 (stereo unspecified)
Solution: 28.5 µM (inactive)

Exercise: Item `NS(=O)(=O)c1cc2c(cc1Cl)NC(C(=O)NNC(=O)c1ccncc1)=NS2(=O)=O` has what recorded GI50?
Solution: > 100 µM (inactive)

Exercise: # input compound: CC(N)C(C)Cc1ccccc1 (stereo unspecified) ; wanted: its GI50
Solution: > 100 µM (inactive)

Exercise: GI50 lookup needed for `Cc1cc(S(=O)(=O)Nc2nc(Nc3ccccc3)n[nH]2)c(SCC(=O)O)cc1Cl` , thanks.
Solution: > 100 µM (inactive)

====

Tested on: IGROV-1
Assay: NCI tumour cell line growth inhibition, 48 h
Activity calls are given as the source filed them. Cut-off read from the data, not from the text of the source: active = GI50 up to about 1.1 µM and inactive = higher.
Classes to choose from: active, inactive

See these solved cases before continuing.
{"molecule": "O=c1[nH]c2c(Nc3c4ccccc4nc4ccccc34)c([N+](=O)[O-])c(Nc3c4ccccc4nc4ccccc34)c([N+](=O)[O-])c2[nH]1", "category label": "inactive"}
{"molecule": "O=C(NC1CCCC1=O)c1ccccc1 (stereo not given)", "category label": "inactive"}

Exercise: Hey, what did the test say about CC(C(=O)N1c2ccccc2Sc2ccccc21)N1c2ccccc2Sc2ccccc21 (stereo not given) ?
Solution: inactive

Exercise: Any idea what this test logged for Cc1cn(C2OC(CO[Si](C)(C)C(C)(C)C)C(N(C)O[Si](C)(C)C(C)(C)C)C2[Se]c2ccccc2)c(=O)[nH]c1=O (stereo not given) ?
Solution: inactive

Exercise: What call does the record list for `CCCCCC1=CC(=O)C1(Cl)Cl` ?
Solution: inactive

Exercise: Hi, sorry to bother you, what did the test record for `COc1ccc2c(c1)-c1nc(=O)n(CCCN(C)C)c3ccc([N+](=O)[O-])c(c13)N2` ?
Solution: active

Exercise: What outcome does the record of this test show for `COc1cc(S(=O)(=O)Nc2nc(-c3ccc(N4C(=O)/C(=C/C=C/c5ccccc5)N=C4c4ccccc4)cc3)cs2)ccc1Cl` ?
Solution: inactive

Exercise: Record lookup: outcome of this test for `c1cc2nnc1SCCCSc1ccc(nn1)SCCCS2` ?
Solution: inactive

Exercise: Check the results log: what was the call for `COCN1C(=O)[C@@H]2CCCN2C(=O)c2cc([N+](=O)[O-])ccc21` ?
Solution: inactive

Exercise: Could you kindly confirm the outcome this assay logged for `O=C1/C(=C/c2ccccc2)N=C2Sc3c([nH]cnc3=O)N12` ?
Solution: inactive

====

System: ACHN
Assay: NCI tumour cell line growth inhibition, 48 h
The source made the active and inactive calls. No stated cut-off is given here; in the data, active = GI50 up to about 1.1 µM and inactive = higher.
Hi there, use one of these labels in your reply, thanks! label 1 = active, label 0 = inactive

Exercise: Recorded test outcome, item `OC[C@H]1O[C@@H]2O[C@@](COCc3ccccc3)([C@H](OCc3ccccc3)[C@H]2O)[C@@H]1OCc1ccccc1`
Solution: label 0

Exercise: // return assay outcome for `COC(=O)c1cc(OC)c(OC)c(OC)c1-c1cc2c(cc1C=O)OCO2`
Solution: label 0

Exercise: For `CC(=O)n1c2ccc(Br)cc2c2nc3ccccc3nc21` , which call appears in the assay record?
Solution: label 0

Exercise: I would be grateful if you could indicate the recorded call for `Brc1ccc(-c2cc3c(cc2C2SCCS2)OCO3)cc1` .
Solution: label 0

Exercise: What did the test return for `CN(C)CCn1cnc2ncccc2c1=O` ?
Solution: label 0

Exercise: Recorded call for `CCOC(=O)c1cccc(NC(=O)CCl)c1` ?
Solution: label 0

Exercise: I'd appreciate the recorded outcome for `O=c1[nH]c2c(Nc3c4ccccc4nc4ccccc34)c([N+](=O)[O-])c(Nc3c4ccccc4nc4ccccc34)c([N+](=O)[O-])c2[nH]1` from this test.
Solution: label 1

Exercise: Fill in: this test's call for Cc1nc2cccc(F)c2c(=O)n1C1CCCCNC1=O (stereo not drawn) is ___
Solution: label 0
